Origin of values: paper PMC6792352

Recorded AC50 for the following compounds
# Test system: thyroid hormone receptor (endogenous TRα and TRβ)
# Parameters: species or system GH3-TRE-Luc (rat pituitary); GH3-TRE-Luc luciferase reporter, antagonist mode against 1 nM T3, loss of signal, qHTS
# RUN_PARAMETERS: read-out: Average AC50 (uM) GH3-TRE-Antag, antagonist mode, 1 nM T3, no GH3 cytotoxicity hit
PROPERTY_MEASURED: AC50

• O=c1oc2ccccc2c(O)c1C1CCCc2ccccc21 (stereo not shown) [Coumatetralyl] = > 90 µM
• CC(=O)Oc1ccc(C2(c3ccc(OC(C)=O)cc3)C(=O)Nc3ccccc32)cc1 [Oxyphenisatin acetate] = > 50 µM
• CCN(CC)CCNC(C(=O)OCCC(C)C)c1ccccc1 (stereo not shown) [Camylofin] = > 50 µM
• CC(C)Cc1ccc(C(C)C(=O)O)cc1 (stereo not shown) [Ibuprofen] = > 50 µM
• CC(C)C[C@H](NC(=O)OCC1c2ccccc2-c2ccccc21)C(=O)O [N-(9-Fluorenylmethoxycarbonyl)-L-leucine] = > 90 µM
• CC1(C)[C@H](C(=O)O[C@H](C#N)c2cccc(Oc3ccccc3)c2)[C@@H]1C=C(Cl)Cl [alpha-Cypermethrin] = > 90 µM
• [O-][N+](=Nc1ccccc1)c1ccccc1 [Azoxybenzene] = > 50 µM
